// provenance: paper PMC3432147

# test.name: In vitro metabolic stability in human liver microsomes
# condition.label: human liver microsomal protein 0.125 mg, NADPH generating system, 37°C, 60 min; parent by LC-MS/MS; triplicate
Listing of recorded Stability (% remaining) by entry.
Output spec: scalar in % remaining, unitless text.

compound	Stability (% remaining)
CCCCC(CC)OC(=O)C1CCCC(NC(=O)NC23CC4CC(CC(C4)C2)C3)C1 (centres unmarked) [Compound 12]	10
CCOCCOCCOC(=O)CCCNC(=O)NC12CC3CC(CC(C3)C1)C2 [Compound 8]	10
CCOCCOCC(OC(=O)CCCNC(=O)NC12CC3CC(CC(C3)C1)C2)c1ccccc1 (centres unmarked) [Compound 9]	14
CCOCCOCC(OC(=O)C1CCCC(NC(=O)NC23CC4CC(CC(C4)C2)C3)C1)c1ccccc1 (centres unmarked) [Compound 13]	32
O=C(NC1CCCC(C(=O)O)C1)NC12CC3CC(CC(C3)C1)C2 (centres unmarked) [Compound 10]	95
CCCCC(CC)OC(=O)CCCNC(=O)NC12CC3CC(CC(C3)C1)C2 (centres unmarked) [Compound 6]	4

Next up:
In: Query: Stability (% remaining); subject: O=C(O)CCCNC(=O)NC12CC3CC(CC(C3)C1)C2 [Compound 3, 4-(3-adamantan-1-yl-ureido)-butyric acid]
Out: 97
